Multi-source literature compilation: IC50 on UniProt Q9NWZ3.
Readout: IC50 (nM)

# Molecule, Result Modifier, Numeric Result
records = [
    ("COc1cc2nn(C3CCN(CC4CC5(CCN(C(=O)c6ccc(Cl)c(N7CCC(=O)NC7=O)c6)CC5)C4)CC3)cc2cc1NC(=O)c1cccc(C(F)(F)F)n1", "=", 16.7),
    ("CC(C)Nc1cc(-c2ccc3cc(C#N)cnn23)ncc1-c1cn(C2(C(F)(F)F)CC2)nn1", "=", 12),
    ("CC(N)c1cccc(-c2ccc3cnn(-c4cccc(C(C)(C)C)n4)c3c2)n1 (stereo not shown)", "<", 100),
    ("CC(C)Nc1c(C(=O)NCCC2CCS(=O)(=O)CC2)cnc2ccc(-c3cn[nH]c3)cc12", "=", 4.3),
    ("CC[C@@H]1CC(=O)N[C@@H]1COc1csc2cc(C(N)=O)c(OC3CC3)nc12", "=", 19.1),
]

###

Multiple publications report IC50 for IRAK4 (Homo sapiens (Human)); what follows is a combined list.

# Compound, Result Modifier, IC50 / nM
records = [
    ("Nc1cncc(-c2ccc3cnn(-c4cccc(C5CCCC5)n4)c3c2)c1", ">", 10000),
    ("COC(=O)N1CCN([C@H]2CC[C@H](Nc3nc(Nc4cnn(C)c4)nc4snc(C)c34)CC2)CC1", "=", 10.7),
    ("CCOCC(O)Cn1cc(-c2cnc(-n3ncc4cc(C#N)cnc43)cc2NC(C)C)nn1 (stereo not shown)", "=", 8),
    ("CNC(=O)[C@H]1CC[C@H](NC(=O)c2cnc(Nc3ccc4ncsc4n3)cc2NC2CCOCC2)CC1", "=", 1.5),
    ("CN(C)[C@H]1CC[C@H](Nc2ncnc3ccc(-c4cncnc4)cc23)CC1", "=", 3),
    ("CC(C)Nc1cc(Nc2ccc3ncsc3c2)ncc1C(=O)N[C@H]1CC[C@H](C(N)=O)CC1", "=", 2.4),
    ("COc1ccc2c(c1)/C(=C/c1cnc(C(C)(C)C)[nH]1)C(=O)N2", ">", 10000),
    ("N[C@@H](c1cccc(-c2ccc3cnn(-c4cccc(CO)n4)c3c2)n1)[C@H]1C[C@H](O)C1", "≤", 100),
    ("O=C(NCCC(F)(F)F)c1cnc2ccc(-c3cn[nH]c3)cc2c1NCC(F)F", "=", 35.1),
    ("C[C@H](N)c1cccc(-c2cc(-c3cn(C)cn3)c3cnn(-c4cccc(CO)n4)c3c2)n1", "<", 100),
    ("Cc1nsc2nc(Nc3cnn(C[C@H]4COCCO4)c3)nc(N[C@H]3CC[C@H](N4CCOCC4)CC3)c12", "=", 30.3),
    ("C=CC(=O)N1CCC[C@H](C(=O)Nc2ccc(-c3ncc(-c4cccc(-c5ccn[nH]5)n4)s3)nc2)C1", "=", 244),
]

###

pIC50: −log10 of the molar value.
Please find below pIC50 data on IRAK4 (Homo sapiens (Human)) compiled from the literature.

# Input Smiles, pIC50
rows = [
    ("N#Cc1ccnc(-n2ncc3ccc(-c4cncc(N)c4)cc32)n1", "> 7.00"),
    ("Cn1cc(-c2cccc(-c3ncc(-c4cnn(C)c4)c(NCC4CCOCC4)n3)c2)cn1", "6.00 to 7.00"),
    ("CO[C@H](C[C@H]1CCc2sc3ncnc(O[C@H]4CC[C@H](N(C)C)CC4)c3c21)C(N)=O", "> 5.30"),
    ("O=C(CCCc1cn(-c2ccccc2)c(NC(=O)c2cccc(-c3ccc4scnc4c3)c2)n1)NC1CC1", "< 7.00"),
]
